- ASSAY_NAME: amyloid nucleation score (Sup35N fusion, yeast selection) (log enrichment); library NNK2; higher = more nucleation; inactive = no reads after selection;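 also: zero at mode of non-aggregating sequences after 7 days selection at 30°C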
Binary call on amyloid nucleation score: met from -0.1 upward, not met beneath that.

Ask: amyloid nucleation score >= -0.1 for PFSWVASDNTYQSTSLSIVH ?
Result: met

Ask: Same question for SGEGRLLVRWALVKVTEEKL please.
Result: met

Ask: Same question for LYWRKTVITIEWSCSGGNLR please.
Result: met

Ask: Same question for GADGCCHNMDCGFLNINWTN please.
Result: met

Ask: Same question for GTTSCISDLQWMGYIVKL please.
Result: met

Ask: Same question for TCDKLGAVVMSLLECVNEAP please.
Result: met

Ask: Same question for LFRYQRPLYGVRRTSTKVMA please.
Result: met

Ask: Same question for GCKSGDQDLALRNGCRKQRS please.
Result: met

Ask: Same question for NTWTCAQPRVTLLAQLYELN please.
Result: met

Ask: Same question for VYLGSGFAARRSSGEQRRIS please.
Result: met

Ask: Same question for GSVVHLQSCNISLIAYGLHG please.
Result: met

Ask: Same question for HCSDFDLVSAKWSSQWARNG please.
Result: met

Ask: Same question for IVFYVEVVLMAECLADVKRV please.
Result: met

Ask: Same question for VLVCRFQSIFGILVVASCVK please.
Result: not met

Ask: Same question for PRSQYRITYDYVCCRVMYKY please.
Result: met

Ask: Same question for SSKKCDNRGLMLWVRGILVA please.
Result: met

Ask: Same question for TRWLGGISMGNSVFVLIRTL please.
Result: met

Ask: Same question for ELVGYNVVGAIGSQ please.
Result: met

Ask: Same question for FRLYFHPGVNGAET please.
Result: not met

Ask: Same question for VSQFYSMPLTSSYWSLVSSL please.
Result: met

Ask: Same question for RFGFRSGPTSSRMWYSFLEF please.
Result: met

Ask: Same question for FKNCDGRNIRSSHNPFNMVR please.
Result: not met

Ask: Same question for RWCSSYRYIHSGGRNASGSF please.
Result: not met

Ask: Same question for MVMTYLWARGCCMKLGVQFG please.
Result: met

Ask: Same question for YSYRVRI please.
Result: met

Ask: Same question for EVSRKTDTGQLLSDHVFFMN please.
Result: not met

Ask: Same question for VDFCVDVLFC please.
Result: not met

Ask: Same question for VCIMSRYKLQLLKNSNGITH please.
Result: met

Ask: Same question for RKPLLHLVRFRWNNPLDNE please.
Result: not met

Ask: Same question for EVDSVNVSLCVS please.
Result: not met

Ask: Same question for HLDLDPPM please.
Result: met

Ask: Same question for WNLCGCAFDQLYKGVRSVNG please.
Result: met

Ask: Same question for LLFRRMEKSRLSLERV please.
Result: not met

Ask: Same question for IDILTVICVPEIYNWFLMQY please.
Result: not met

Ask: Same question for SSLVGFERGRSMGRGMWVDL please.
Result: met

Ask: Same question for SVLMGG please.
Result: not met

Ask: Same question for CDKFFLDF please.
Result: not met

Ask: Same question for YVTVTNGMI please.
Result: not met

Ask: Same question for AFSMCSDRWIWLSCLNVEFV please.
Result: met

Ask: Same question for GDTIVSSGKVSCQRHASFLI please.
Result: met

Ask: Same question for YLIIKCDKRCVEDFDALLE please.
Result: met

Ask: Same question for NESSTSQNKGTRTDKGAESL please.
Result: met

Ask: Same question for DIHRPQRYISKYSSTREWVG please.
Result: not met

* * *

- ASSAY_NAME: amyloid nucleation score (Sup35N fusion, yeast selection) (log enrichment); library NNK2; higher = more nucleation; inactive = no reads after selection
# amyloid nucleation score binned as lower segment (below 0.1), middle segment (0.1 to below 1), upper segment (1 or more)

Ask: // return the class label for RCLLTYSVEYWRIFGTSPDS
Result: middle segment

Ask: Same question for IYRLDHRACP please.
Result: upper segment

Ask: Same question for IPRIDDSDLFRTLDF please.
Result: lower segment

Ask: Same question for DNRKDSFMLHSFGTKVSGHK please.
Result: middle segment

Ask: Same question for AVCTESMLWS please.
Result: lower segment

Ask: Same question for WDPLSSCKGACDM please.
Result: middle segment

Ask: Same question for EAVNGWALLHIVSQ please.
Result: middle segment

Ask: Same question for VMNHSQL please.
Result: upper segment

Ask: Same question for YYWTPCGVCITFVGCNVILY please.
Result: upper segment

Ask: Same question for RNFRSCP please.
Result: middle segment

Ask: Same question for FSVLWEMDRLVHG please.
Result: middle segment

Ask: Same question for NFNYFGWISQEIPPLLAGLS please.
Result: lower segment

Ask: Same question for MSMSHSAGDRDGWIFDHRDV please.
Result: upper segment

Ask: Same question for DDIAVCWNCFVRLILMMWED please.
Result: upper segment

Ask: Same question for AERIFSQ please.
Result: lower segment

Ask: Same question for FYLRFNTFVSDTNCLTDWLA please.
Result: upper segment

Ask: Same question for NFIVIALRGTDNTYSLSGLS please.
Result: upper segment

Ask: Same question for MRMYLGVDSENRASDMGRTR please.
Result: upper segment

Ask: Same question for KVNKMPYSLFIYLKKLNFC please.
Result: lower segment

Ask: Same question for HMYLDMPAQLTS please.
Result: upper segment

Ask: Same question for LCGTLLIMKRVMSGYNLQAK please.
Result: lower segment

Ask: Same question for DQCPFFSVWWSSLDYSWM please.
Result: lower segment

Ask: Same question for WYAHGLISVCFVCAGLESLG please.
Result: lower segment

Ask: Same question for DFNSCRLTVHLRYTSVPCRY please.
Result: middle segment

Ask: Same question for LKYIPRWVGTSLLQRKLCDF please.
Result: lower segment

Ask: Same question for NRISGLGMSSKGKRGKVMLK please.
Result: middle segment

Ask: Same question for QYGVLSSETLGCTVFKWYVS please.
Result: middle segment

Ask: Same question for CITVFAVINMQSAAVSCKQV please.
Result: upper segment

Ask: Same question for IVSSSNFFKLMYCMFILRIS please.
Result: middle segment

Ask: Same question for WECLGTCDVGSCLTWRIGGR please.
Result: upper segment

Ask: Same question for LVSVVWTKCRRGQRGVLVAS please.
Result: upper segment

Ask: Same question for KGGWNKGEPMFFLVMCMYVN please.
Result: upper segment

Ask: Same question for LCGSRKRCGEMLRRKLGKYV please.
Result: middle segment

Ask: Same question for CLIDFWKRDFKSAVDSKGTA please.
Result: middle segment

Ask: Same question for NGTVDACLSLMPQGWHSGLE please.
Result: upper segment

Ask: Same question for LLCYRWGHVN please.
Result: lower segment

Ask: Same question for DVAGKL please.
Result: lower segment

* * *

- ASSAY_NAME: amyloid nucleation score (Sup35N fusion, yeast selection) (log enrichment); library NNK1; higher = more nucleation; inactive = no reads after selection
Kindly supply the reported amyloid nucleation score values for the records listed here.
Give the value as a plain number.

Ask: Using the record for RFGYFFHLVGAGEGHGKGAC , report its amyloid nucleation score.
Result: 0.686

Ask: Same question for TNELCMYCLGHLGY please.
Result: 0.694

Ask: Same question for MVRYKRRSLELFMIARYSCC please.
Result: 0.599

Ask: Same question for MLRSNVLYLIHRALCLWCVT please.
Result: 2.42

Ask: Same question for YCWCINNH please.
Result: 6.26

Ask: Same question for YSYSGVRMVVILNWHGKWWC please.
Result: 4.87

Ask: Same question for CVYVSMLH please.
Result: -0.483

Ask: Same question for QVWITWVGRKLPHRGKTVGN please.
Result: -0.379

Ask: Same question for VRGPGDGFWLEDGTGSHSYR please.
Result: -0.078

Ask: Same question for ITSRVQFRETHTYIMYLEAW please.
Result: 0.138

Ask: Same question for PNRRCCPMVGFIWLYRVL please.
Result: 0.836

* * *

- ASSAY_NAME: amyloid nucleation score (Sup35N fusion, yeast selection) (log enrichment); library NNK2; higher = more nucleation; inactive = no reads after selection
MEASUREMENT_LABEL: amyloid nucleation score

| SUBSTANCE | amyloid nucleation score |
| --- | --- |
| LYWKSGEHIWYLGSILGCVG | 0.593 |
| WFDYGR | inactive |
| VLPQDKNMILYYKSLLHLFC | 0.823 |
| RSCPFAFGEGG | 0.782 |
| LYHEDRSVISRLVSSRLKCK | 0.389 |

Ask: Using the record for IITIIKF , report its amyloid nucleation score.
Result: 7.16

Ask: Same question for FDQVWRCVASLRPIVLSCSS please.
Result: 0.322

Data provenance: the supplement of paper PMC12042874
